Where do the numbers come from? From ChEMBL document CHEMBL4477207.

assay-remarks: Apparent permeability from apical to basolateral side in human Caco2 cells
Format: ADME, cell-based
condition-summary: Caco-2
parameter: Papp A→B (×10⁻⁶ cm/s)

1) COCc1ccc(-c2cc3c(N[C@@H](C)c4ccn(C)n4)c(C(N)=O)cnc3cc2F)cn1    14

* * *

assay-remarks: Clearance in Han Wistar rat at 2 mg/kg, iv or 5 mg/kg, po
Assay type: ADME, organism-based
condition-summary: in vivo
Measured clearance by item
parameter: clearance

1) COCc1ccc(-c2cc3c(N[C@@H](C)c4ccn(C)n4)c(C(N)=O)cnc3cc2F)cn1    13 mL/min/kg
2) COCc1ccc(-c2ccc3ncc(C(N)=O)c(N[C@@H](C)C4CCOCC4)c3c2)cn1    18 mL/min/kg
